Source: patent US20170253607A1

Consider the following compounds and their measured IC50 readings.
Molecular target: HIV-1 PR (Human immunodeficiency virus type 1 group M subtype B)
Assay: HIV-protease inhibitory activity assay (FRET peptide substrate)
Details: Test Example 1

[
  {
    "compound": "COc1ccc(S(=O)(=O)N(CC(C)C)CC(O)C(Cc2ccc(NCc3cc(C(F)(F)F)ccc3C(=O)Nc3sc4c(c3C(=O)O)CC(C)(C)CC4)cc2)NC(=O)OC2COC3(C)OCCC23)cc1 (centres unmarked)",
    "IC50 [nM]": 6.44
  },
  {
    "compound": "COc1ccc(S(=O)(=O)N(CC(C)C)CC(O)C(Cc2ccc(NCc3cnn4ccc(C(=O)O)nc34)cc2)NC(=O)OC2COC3(C)OCCC23)cc1 (centres unmarked)",
    "IC50 [nM]": 1.95
  },
  {
    "compound": "COc1ccc(S(=O)(=O)N(CC(C)C)CC(O)C(Cc2ccc(N(C)Cc3cc4c(cc3-c3sc5c(c3C(=O)O)CC(C)(C)CC5)OCC(=O)N4C)cc2)NC(=O)OC2COC3(C)OCCC23)cc1 (centres unmarked)",
    "IC50 [nM]": 2.95
  },
  {
    "compound": "COc1ccc(S(=O)(=O)N(CC(C)C)CC(O)C(Cc2ccc(NC(C)c3ccccc3-c3sc4c(c3C(=O)O)CC(C)(C)CC4)cc2)NC(=O)OC2COC3(C)OCCC23)cc1 (centres unmarked) [Compound I-383]",
    "IC50 [nM]": 6.47
  },
  {
    "compound": "COc1ccc(S(=O)(=O)N(CC(C)C)CC(O)C(Cc2ccc(OCC3CCCN3Cc3sc4c(c3C(=O)O)CC(C)(C)CC4)cc2)NC(=O)OC2COC3(C)OCCC23)cc1 (centres unmarked)",
    "IC50 [nM]": 1.63
  }
]

###

Target: HIV-1 PR (Human immunodeficiency virus type 1 group M subtype B)
Experiment: HIV-protease inhibitory activity assay (FRET peptide substrate)
Details: Test Example 1
pIC50: −log10 of the molar value.
Consider the following compounds and their measured pIC50 readings.

[
  {
    "compound": "COc1ccc(S(=O)(=O)N(CCC(C)C)CC(O)C(Cc2ccc(NCc3ccccc3-c3sc4c(c3C(=O)O)CC(C)(C)CC4)cc2)NC(=O)OC2COC3(C)OCCC23)cc1 (centres unmarked) [Compound I-475]",
    "pIC50": 8.62
  },
  {
    "compound": "COc1ccc(S(=O)(=O)N(CC(C)C)CC(O)C(Cc2ccc(OCc3ccccc3-c3sc4c(c3C(=O)O)CCC4)cc2)NC(=O)OC2COC3OCCC23)cc1 (centres unmarked) [Compound I-832]",
    "pIC50": 8.94
  },
  {
    "compound": "CC(C)CN(CC(O)C(Cc1ccc(NCc2ccccc2C(=O)Nc2sc3c(c2C(=O)O)CC(C)(C)CC3)cc1)NC(=O)OC1COC2OCCC12)S(=O)(=O)c1ccc2c(c1)OCO2 (centres unmarked) [Compound I-854]",
    "pIC50": 8.50
  },
  {
    "compound": "CC1(C)CCc2sc(NC(=O)c3ccccc3CNc3ccc(CC(NC(=O)OC4COC5(C)OCCC45)C(O)CN(CC4CCCC4)S(=O)(=O)c4ccc5c(c4)OCO5)cc3)c(C(=O)O)c2C1 (centres unmarked) [Compound I-600]",
    "pIC50": 8.29
  },
  {
    "compound": "COc1ccc(S(=O)(=O)N(CC(C)C)CC(O)C(Cc2ccc(OC3CCN(Cc4sc5c(c4C(=O)O)CC(C)(C)CC5)C3)cc2)NC(=O)OC2COC3(C)OCCC23)cc1 (centres unmarked) [Compound I-184]",
    "pIC50": 8.79
  }
]

###

Consider the following compounds and their measured pIC50 readings.
Biological target: HIV-1 PR (Human immunodeficiency virus type 1 group M subtype B, UniProt P04585)
Test: HIV-protease inhibitory activity assay (FRET peptide substrate)
Settings: Test Example 1
pIC50: −log10 of the molar value.

[
  {
    "compound": "COc1ccc(S(=O)(=O)N(CC(C)C)CC(O)C(Cc2ccc(OCc3cccnc3-c3sc4c(c3C(=O)O)CC(C)(C)CC4)cc2)NC(=O)OC2COC3(C)OCCC23)cc1 (stereo not shown)",
    "pIC50": 8.88
  },
  {
    "compound": "COc1ccc(S(=O)(=O)N(CC(C)C)CC(O)C(Cc2ccc(N(C)C3CCc4c(-c5sc6c(c5C(=O)O)CC(C)(C)CC6)cccc43)cc2)NC(=O)OC2COC3(C)OCCC23)cc1 (stereo not shown) [Compound I-710]",
    "pIC50": 8.37
  },
  {
    "compound": "COc1ccc(S(=O)(=O)N(CC(C)C)CC(O)C(Cc2ccc(OCc3ccc(-c4ccc(F)cc4F)c(C(=O)O)c3)cc2)NC(=O)OC2COC3(C)OCCC23)cc1 (stereo not shown)",
    "pIC50": 8.94
  },
  {
    "compound": "CC1(C)CCc2sc(-c3ccc(C(F)(F)F)cc3CNc3ccc(CC(NC(=O)OC4COC5OCCC45)C(O)CN(CC4CCCC4)S(=O)(=O)c4ccc5c(c4)OCO5)cc3)c(C(=O)O)c2C1 (stereo not shown)",
    "pIC50": 8.15
  },
  {
    "compound": "COc1ccc(S(=O)(=O)N(CC(C)C)CC(O)C(Cc2ccc(NCc3nc(N4CCOCC4)sc3-c3sc4c(c3C(=O)O)CC(C)(C)CC4)cc2)NC(=O)OC2COC3(C)OCCC23)cc1 (stereo not shown)",
    "pIC50": 8.74
  },
  {
    "compound": "COc1ccc(S(=O)(=O)N(CC(C)C)CC(O)C(Cc2ccc(NCc3occc3-c3sc4c(c3C(=O)O)CC(C)(C)CC4)cc2)NC(=O)OC2COC3(C)OCCC23)cc1 (stereo not shown)",
    "pIC50": 8.67
  },
  {
    "compound": "COc1ccc(S(=O)(=O)N(CC(C)C)CC(O)C(Cc2ccc(N(C)Cc3ccccc3C(=O)Nc3sc4c(c3C(=O)O)CC(C)(C)CC4)cc2)NC(=O)OC2COC3(C)OCCC23)cc1 (stereo not shown)",
    "pIC50": 8.42
  },
  {
    "compound": "COc1ccc(S(=O)(=O)N(CC(C)C)CC(O)C(Cc2ccc(OCC3COCC3c3sc4c(c3C(=O)O)CC(C)(C)CC4)cc2)NC(=O)OC2COC3(C)OCCC23)cc1 (stereo not shown) [Compound I-394]",
    "pIC50": 8.79
  },
  {
    "compound": "CC1(C)CCc2sc(-c3ccccc3COc3ccc(CC(NC(=O)OC4COC5(C)OCCC45)C(O)CN(CC(F)F)S(=O)(=O)c4ccc5ncsc5c4)cc3)c(C(=O)O)c2C1 (stereo not shown)",
    "pIC50": 9.00
  },
  {
    "compound": "COc1ccc(S(=O)(=O)N(CC(C)C)CC(O)C(Cc2ccc(OCCn3nc(C)c(-c4sc5c(c4C(=O)O)CC(C)(C)CC5)c3C)cc2)NC(=O)OC2COC3OCCC23)cc1 (stereo not shown)",
    "pIC50": 8.99
  }
]

###

Molecular target: HIV-1 PR (Human immunodeficiency virus type 1 group M subtype B)
Assay: HIV-protease inhibitory activity assay (FRET peptide substrate)
Assay type: biochemical
Settings: Test Example 1
Consider the following compounds and their measured IC50 readings.

[
  {
    "compound": "COc1ccc(S(=O)(=O)N(CC(C)C)CC(O)C(Cc2ccc(NCc3ccccc3-c3c(C(=O)O)cnc4onc(C)c34)cc2)NC(=O)OC2COC3(C)OCCC23)cc1 (centres unmarked)",
    "resultUnits": "nM",
    "IC50": 1.55
  },
  {
    "compound": "COc1ccc(S(=O)(=O)N(CC(C)C)CC(O)C(Cc2ccc(-c3ccc(-c4sc5c(c4C(=O)O)CC(C)(C)CC5)cc3)cc2)NC(=O)OC2COC3(C)OCCC23)cc1 (centres unmarked)",
    "resultUnits": "nM",
    "IC50": 2.39
  },
  {
    "compound": "COc1ccc(S(=O)(=O)N(CC(C)C)CC(O)C(Cc2ccc(NCc3ccccc3-c3sc(N(C4CCCCC4)C4CCCCC4)nc3C(=O)O)cc2)NC(=O)OC2COC3(C)OCCC23)cc1 (centres unmarked)",
    "resultUnits": "nM",
    "IC50": 5.51
  },
  {
    "compound": "COc1ccc(S(=O)(=O)N(CC(C)C)CC(O)C(Cc2ccc(NCc3ccccc3-c3ccc4cc(C(=O)O)[nH]c4c3)cc2)NC(=O)OC2COC3(C)OCCC23)cc1 (centres unmarked)",
    "resultUnits": "nM",
    "IC50": 1.68
  },
  {
    "compound": "COc1ccc(S(=O)(=O)N(CC(C)C)CC(O)C(Cc2ccc(N(Cc3cccnc3)Cc3ccccc3-c3sc4c(c3C(=O)O)CC(C)(C)CC4)cc2)NC(=O)OC2COC3(C)OCCC23)cc1 (centres unmarked)",
    "resultUnits": "nM",
    "IC50": 2.8
  }
]
